Read-out: E-selectin (Homo sapiens) (UniProt P16581)
Sequence (P16581 whole entry, looked up): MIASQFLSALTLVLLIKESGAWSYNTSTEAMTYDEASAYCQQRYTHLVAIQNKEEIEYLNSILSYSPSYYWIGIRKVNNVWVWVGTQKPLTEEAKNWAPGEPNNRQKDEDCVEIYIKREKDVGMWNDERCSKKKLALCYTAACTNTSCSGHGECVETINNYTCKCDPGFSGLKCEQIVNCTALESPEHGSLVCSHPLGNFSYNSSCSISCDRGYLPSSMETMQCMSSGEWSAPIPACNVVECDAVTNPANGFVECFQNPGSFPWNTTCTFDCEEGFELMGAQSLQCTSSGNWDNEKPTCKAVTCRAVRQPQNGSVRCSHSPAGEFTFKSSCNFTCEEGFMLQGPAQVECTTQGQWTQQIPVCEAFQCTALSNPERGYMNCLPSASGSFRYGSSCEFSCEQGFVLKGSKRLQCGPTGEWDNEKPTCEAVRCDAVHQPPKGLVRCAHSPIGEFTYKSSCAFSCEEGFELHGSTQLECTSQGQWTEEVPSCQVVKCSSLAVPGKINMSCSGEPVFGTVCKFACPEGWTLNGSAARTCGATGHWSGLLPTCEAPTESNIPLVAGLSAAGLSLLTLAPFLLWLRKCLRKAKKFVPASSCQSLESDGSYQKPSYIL
Test: BSK_3C_Eselectin: BioMAP Diversity Plus: 3C Assay for Eselectin Biomarker Activity (AID 2283015)
Conditions: primary human endothelial cells (HUVEC); actives raise or lower the signal
Calls of active or inactive are those of the source. The calls were made as follows: active = hit-call score of the fitted dose curve at least 0.9, where 1 is the maximum; inactive = score below 0.9.
Experimental Readout: AC50

Below, 5 molecules whose answers are already recorded.
In [3]: df
Out[3]:
                                   molecule   endpoint_result
0                      Oc1ccc(-c2ccccc2)cc1          inactive
1               CC(C)(C)CC(C)(C)c1ccc(O)cc1  7.99 µM (active)
2          O=[N+]([O-])c1ccc2c3c(cccc13)CC2          inactive
3  O=C(Nc1ccc2[nH]ccc2c1)c1cc2cc(F)ccc2n1Cc1cccc(F)c1  10.9 µM (active)
4  COc1cc(OC)nc(NC(=O)NS(=O)(=O)c2ncccc2C(=O)N(C)C)n1          inactive

Okay, here is my list. What is AC50 for each of these?
1. CCNc1nc(NC(C)(C)C)nc(SC)n1
2. Oc1c(I)cc(I)cc1I
3. CCOP(=S)(OCC)SCCS(=O)(=O)CC
4. CC(=O)C(Cl)C(=O)N(C)C (stereo not drawn)
5. CC12CC1(C)C(=O)N(c1cc(Cl)cc(Cl)c1)C2=O (stereo not drawn)
6. CCSC(C)CC1CC(=O)C(C(CC)=NOC/C=C/Cl)=C(O)C1 (stereo not drawn)
7. COC(=O)c1sccc1S(=O)(=O)NC(=O)Nc1nc(C)nc(OC)n1

["inactive", "11.3 µM (active)", "inactive", "20 µM (active)", "inactive", "inactive", "inactive"]

Recorded result, CC(=O)OC(c1ccccc1)C(Cl)(Cl)Cl (stereo not drawn) , AC50: inactive
